Collected pEC50 values appear next to each entry.
Target: Glycogen [starch] synthase, muscle (Homo sapiens, UniProt P13807)
Assay: Activation of human recombinant muscle GYS1 expressed in insect sf9 cells using glycogen and UDP-glucose as substrates by spectrophotometry
// field semantics: pEC50 = negative decimal log of concentration (mol/L)

Use these answered entries as a reference point.
[[record]]
structure_as_smiles = "COc1cc(F)c(F)cc1-c1ccc(OCc2cccc(C(=O)N(C)CC(=O)O)c2)cc1"
quantitative_result = 7.00

[[record]]
structure_as_smiles = "Cn1[nH]c2c(COc3ccc(-c4cc(F)c(F)cc4F)cc3)cccc2c1=O"
quantitative_result = 5.75

[[record]]
structure_as_smiles = "COc1cc(F)c(F)cc1-c1ccc(OCc2cccc3c(=O)n(-c4ccc(F)cc4)[nH]c23)cc1"
quantitative_result = 5.86

[[record]]
structure_as_smiles = "COc1cc(F)c(F)cc1-c1ccc(OCc2cccc(C(=O)N(C)CCO)c2)cc1"
quantitative_result = 5.39

[[record]]
structure_as_smiles = "Cc1cc(F)c(F)cc1-c1ccc(OCc2cccc3c(=O)n(C[C@@H](O)CO)[nH]c23)cc1"
quantitative_result = 6.64

[[record]]
structure_as_smiles = "COCCn1[nH]c2c(COc3ccc(-c4cc(F)c(F)cc4OC)cc3)cccc2c1=O"
quantitative_result = 6.43

[[record]]
structure_as_smiles = "O=C(O)[C@@H]1CCCN1C(=O)c1ccc(COc2ccc(-c3ccccc3)cc2)o1"
quantitative_result = 4.82


Then this compound:
Entry `O=c1c2cccc(COc3ccc(-c4cc(F)c(F)cc4F)cc3)c2[nH]n1C[C@H](O)CO` , pEC50 reported as 6.24

---

Target: Glycogen [starch] synthase, muscle (Homo sapiens)
Sequence (whole entry): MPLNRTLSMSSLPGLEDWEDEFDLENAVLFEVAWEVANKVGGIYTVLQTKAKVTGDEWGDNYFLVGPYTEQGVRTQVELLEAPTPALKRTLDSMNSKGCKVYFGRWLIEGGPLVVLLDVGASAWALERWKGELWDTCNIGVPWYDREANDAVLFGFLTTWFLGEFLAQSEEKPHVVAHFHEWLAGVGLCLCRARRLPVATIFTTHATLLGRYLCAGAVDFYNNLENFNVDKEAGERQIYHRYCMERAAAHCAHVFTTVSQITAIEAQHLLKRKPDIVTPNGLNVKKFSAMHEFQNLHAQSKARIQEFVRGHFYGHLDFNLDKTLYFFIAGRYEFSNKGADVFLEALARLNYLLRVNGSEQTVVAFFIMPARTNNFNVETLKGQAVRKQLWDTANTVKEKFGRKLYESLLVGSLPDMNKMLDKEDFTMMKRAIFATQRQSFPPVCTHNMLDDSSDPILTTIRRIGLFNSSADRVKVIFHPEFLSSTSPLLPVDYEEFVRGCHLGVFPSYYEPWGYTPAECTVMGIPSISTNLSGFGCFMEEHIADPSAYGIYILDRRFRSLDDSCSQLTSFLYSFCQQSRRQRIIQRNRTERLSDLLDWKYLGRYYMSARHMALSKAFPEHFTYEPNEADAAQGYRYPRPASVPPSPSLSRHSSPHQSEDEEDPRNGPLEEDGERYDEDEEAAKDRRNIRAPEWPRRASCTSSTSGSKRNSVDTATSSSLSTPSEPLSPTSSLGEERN
Assay: Activation of human recombinant muscle GYS1 expressed in insect sf9 cells using glycogen and UDP-glucose as substrates assessed as concentration required to 200% activation by spectrophotometry
Measured Activity values are reported for all entries that follow.
Could you give me the number in µM? Just the number is fine.

[[record]]
structure_as_smiles = "COc1cc(F)c(F)cc1-c1ccc(OCc2cccc3c(=O)n(C[C@H](O)CO)[nH]c23)cc1"
quantitative_result = 0.07

[[record]]
structure_as_smiles = "O=C(O)Cn1[nH]c2c(COc3ccc(-c4cc(F)c(F)cc4F)cc3)cccc2c1=O"
quantitative_result = 0.69

[[record]]
structure_as_smiles = "Cc1cc(F)c(F)cc1-c1ccc(OCc2cccc3c(=O)n(C[C@@H](O)CO)[nH]c23)cc1"
quantitative_result = 0.1

[[record]]
structure_as_smiles = "O=c1c2cccc(COc3ccc(-c4cc(F)c(F)cc4F)cc3)c2[nH]n1-c1cccnc1"
quantitative_result = 2.75

[[record]]
structure_as_smiles = "COc1cc(F)c(F)cc1-c1ccc(OCc2cccc3c(=O)n(CC(=O)O)[nH]c23)cc1"
quantitative_result = 0.06

[[record]]
structure_as_smiles = "COc1cc(F)c(F)cc1-c1ccc(OCc2cccc3c(=O)n(C)[nH]c23)cc1"
quantitative_result = 0.07

[[record]]
structure_as_smiles = "O=c1c2cccc(COc3ccc(-c4cc(F)c(F)cc4Cl)cc3)c2[nH]n1C[C@H](O)CO"
quantitative_result = 0.16

[[record]]
structure_as_smiles = "Cn1[nH]c2c(COc3ccc(-c4cc(F)c(F)cc4F)cc3)cccc2c1=O"
quantitative_result = 0.49


// sample `COCCn1[nH]c2c(COc3ccc(-c4cc(F)c(F)cc4F)cc3)cccc2c1=O` , its Activity was 0.52

Activity measured on `O=c1c2cccc(COc3ccc(-c4cc(F)c(F)cc4Cl)cc3)c2[nH]n1-c1cccnc1` = 1.14

The recorded Activity for entry `O=c1c2cccc(COc3ccc(-c4cc(F)c(F)cc4Cl)cc3)c2[nH]n1C[C@@H](O)CO` equals 0.25
